Catalogue of binders with associated Binding force
system: T1, Biotinylated Human VEGF165 (ACROBiosystems, Cat. No. VE5-H82Q0) (human, UniProt P15692-4 27-191, biotinylated (site not stated))
T1 construct: Bought reagent; also called Human VEGF-Bio; human VEGF165-Bio
T1 sequence (P15692 other isoform, or with tags, fused parts or gaps limits assumed): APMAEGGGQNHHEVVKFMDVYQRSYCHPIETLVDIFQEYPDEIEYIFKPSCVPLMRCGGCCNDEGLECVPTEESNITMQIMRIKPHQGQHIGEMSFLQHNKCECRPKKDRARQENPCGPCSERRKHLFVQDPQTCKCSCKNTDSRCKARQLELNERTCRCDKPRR
methodSummary: flow cytometry, yeast-displayed clone, 1 nM Human VEGF165-Biotin; ratio of binding MFI and displaying MFI
The answer should be a number; do not append a unit.

// worked examples, Binding force included
Ab1910VE9 parental sequence displayed on the surface of yeast (VHH, also called clone number Ab1910VE9) VHH: EVQLVESGGGLVQPGGSLRLSCAASGSTSDIVSMAWYRQAPGKERELVSAVFAEDWRYVEDSVKGRFTISRDNSKNTVYLQMNSLRAEDTAVYYCNVRLRITDERRRERLDYWGQGTLVTVSS	11.7
YC41D1, affinity-matured mutant clone of Ab1910VE9 displayed on yeast (VHH, also called antibody number Ab1910VE21) VHH: EVQLVESGGGLVQPGGSLRLSCAASGSTSDIVSMAWYRQAPGKERELVSAVLAPGWSYVEDSVKGRFTISRDNSKNTVYLQMNSLRAEDTAVYYCNVRLRITDERRRERLDYWGQGTLVTVSS	98.2
YC43B1, affinity-matured mutant clone of Ab1910VE9 displayed on yeast (VHH, also called antibody number Ab1910VE24) VHH: EVQLVESGGGLVQPGGSLRLSCAASGSTSDIVSMAWYRQAPGKERELVSAVFAEDWRYVEDSVKGRFTISRDNSKNTVYLQMNSLRAEDTAVYYCNVRLRITDWYSRERLDYWGQGTLVTVSS	114

--- query ---
Need Binding force of YC43H2, affinity-matured mutant clone of Ab1910VE9 displayed on yeast (VHH, also called antibody number Ab1910VE23) VHH: EVQLVESGGGLVQPGGSLRLSCAASGSTSDIVSMAWYRQAPGKERELVSAVFAEDWRYVEDSVKGRFTISRDNSKNTVYLQMNSLRAEDTAVYYCNVRLRIPHQWRTERLDYWGQGTLVTVSS , thanks. 129
